test: chemical genetic growth profiling, strain panel (AID 1159580);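 also: tested at 20 µM; growth read once vehicle control cultures reached saturation at 30 °C; 1 = growth at the plate median or of vehicle wells; lower values mean less growth of the strain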; details: S. cerevisiae deletion strains, growth OD, locus YMR205C, strain PFK2 (second series), stronger effect = lower value
Hit rate of the full screen: of about 5,500 compounds, about 2,000 (36%) were called active. Roughly 18% stayed inconclusive and do not appear here. Some of the results follow.
Entries and their normalized growth
Number only, please.

Worked set:
[
  {
    "Compound": "O=C(NC(=S)NNc1ncc(C(F)(F)F)cc1Cl)c1cccs1",
    "Observed Property": "normalized growth",
    "Assay Result": 0.23
  },
  {
    "Compound": "CC1(C)C=Cc2cc(/C(N)=N\\OC(=O)Nc3cccc(C(F)(F)F)c3)ccc2O1",
    "Observed Property": "normalized growth",
    "Assay Result": 0.93
  },
  {
    "Compound": "N/C(=N/OC(=O)Nc1cccc(C(F)(F)F)c1)c1ccc(OC(F)(F)F)cc1",
    "Observed Property": "normalized growth",
    "Assay Result": 0.906
  }
]

input: Quick one: normalized growth of `CC(C)(C)NC(=S)N/N=C\c1cc(Br)c(O)c(Br)c1` ?
output: 0.949

input: # iterate: OC(COCc1ccccc1)Cn1c2ccccc2c2ccccc21 (stereo not drawn)
output: 0.939

input: What do you have for `O=c1[nH][nH]c(=O)n1CCCc1cc2cccc3ccc4cccc1c4c32` ?
output: 0.973

input: Cool, now `O=C(O/N=C1/CCCc2[nH]c3ccccc3c21)c1ccc(Cl)cc1Cl`
output: 0.935

====

assay: chemical genetic growth profiling, strain panel (AID 1159580);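 also: tested at 20 µM; growth read once vehicle control cultures reached saturation at 30 °C; 1 = growth at the plate median or of vehicle wells; lower values mean less growth of the strain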; conditions: S. cerevisiae deletion strains, growth OD, locus YPL051W, strain arl3, stronger effect = lower value
About 2,000 (36%) of roughly 5,500 compounds were called active. Not shown: some 18% with an inconclusive outcome. The list shows a part of the results.
As shown below, each of these compounds has a reported normalized growth value.
Output spec: single numeric token, no unit.

Examples with answers:
[
  {
    "Compound": "CC(=O)OC1CC[C@@]2(C)C(CCC3C2CC[C@]2(C)C(C4=CC(=O)OC4)C(OC(C)=O)CC32O)C1 (stereo partly drawn)",
    "normalized growth": 0.98
  },
  {
    "Compound": "COC1=CC(=O)C=C(OC)C1=O",
    "normalized growth": 0.998
  },
  {
    "Compound": "Cc1ccc(-c2nc3ccc(C)cn3c2CC(=O)N(C)C)cc1",
    "normalized growth": 1.02
  }
]

input: What value of normalized growth has been reported for the following compound? C[C@H]1O[C@@H](O[C@H]2[C@@H](O)C[C@H](O[C@H]3[C@@H](O)C[C@H](O[C@H]4CC[C@]5(C)C6C[C@@H](O)[C@]7(C)[C@@H](C8=CC(=O)OC8)CC[C@]7(O)C6CC[C@@H]5C4)O[C@@H]3C)O[C@@H]2C)C[C@H](O)[C@@H]1O (stereo partly drawn)
output: 1

input: Can you handle `COC(=O)[C@H]1[C@H]2C[C@H]3c4[nH]c5cc(OC)ccc5c4CCN3C[C@H]2C[C@@H](OC(=O)c2cc(OC)c(OC)c(OC)c2)[C@@H]1OC` next?
output: 0.977

input: Would you kindly repeat that for `CC[C@@]1(O)C(=O)OCc2c1cc1n(c2=O)Cc2cc3ccccc3nc2-1` ?
output: 0.828

input: Also, `CC[C@@]1(O)C(=O)OCc2c1cc1n(c2=O)Cc2cc3cc(O)ccc3nc2-1` please.
output: 1

input: Okay, and C[C@H]1O[C@@H](O[C@H]2[C@@H](O)C[C@H](O[C@H]3[C@@H](O)C[C@H](O[C@H]4CC[C@]5(C)C6CC[C@]7(C)[C@@H](C8=CC(=O)OC8)CC[C@]7(O)C6CC[C@@H]5C4)O[C@@H]3C)O[C@@H]2C)C[C@H](O)[C@@H]1O (stereo partly drawn) ?
output: 1.01
